Kindly supply the reported Kp uu values for the records listed here.
Assay: Unbound tissue partition coefficient, ratio of drug level in brain to plasma in mouse administered as single dose
Assay type: ADME
Details: read-out: K(p,uu,brain)
Answers are plain numbers.

// worked examples, Kp uu included
>  <compound>
CN1CC[C@H](c2c(O)cc(O)c3c(=O)cc(-c4ccccc4Cl)oc23)[C@H](O)C1

>  <Kp uu>
0.065

$$$$
>  <compound>
CN(C)C(=O)C(CCN1CCC(O)(c2ccc(Cl)cc2)CC1)(c1ccccc1)c1ccccc1 [LOPERAMIDE]

>  <Kp uu>
0.059

$$$$
>  <compound>
CC(C)c1nc(CN(C)C(=O)N[C@H](C(=O)N[C@@H](Cc2ccccc2)C[C@H](O)[C@H](Cc2ccccc2)NC(=O)OCc2cncs2)C(C)C)cs1

>  <Kp uu>
0.019

$$$$

For the compound COc1cc2nc(N3CCN(C(=O)c4ccco4)CC3)nc(N)c2cc1OC , what Kp uu is on record?
0.059

----------
Experiment: Unbound tissue partition coefficient, ratio of drug level in adipose to plasma in Wistar Han rat at 1 to 2 mg/kg, iv infused for 10 to 20 hrs by LC-MS/MS analysis
Conditions: adipose/plasma
Sorting guide: entries reporting Kp uu beneath 0.8 go in the True pile, the rest go in the False pile.

Past entries and their recorded results:
>  <molecule>
Cc1ccc(NC(=O)c2cc(Oc3ccc(S(C)(=O)=O)cc3)c3c(c2)OC(C)(C)C3)nc1

>  <assignedCategory>
True

$$$$
>  <molecule>
CN(C)C(=O)C(CCN1CCC(O)(c2ccc(Cl)cc2)CC1)(c1ccccc1)c1ccccc1 [LOPERAMIDE]

>  <assignedCategory>
True

$$$$
>  <molecule>
COc1ccc(Cc2cc([C@@H]3OC4(COC4)[C@@H](O)[C@H](O)[C@H]3O)ccc2C)cc1

>  <assignedCategory>
True

$$$$
>  <molecule>
CCCn1cnc(C[C@H](CCCN)C(=O)O)c1

>  <assignedCategory>
True

$$$$
>  <molecule>
COc1ccc2ncc(F)c([C@@H](O)CC[C@@H]3CCN(CCSc4cccs4)C[C@@H]3C(=O)O)c2c1

>  <assignedCategory>
True

$$$$

Input CC(C)C[C@H](Nc1ccc(C(=O)NCCC(=O)O)cn1)c1ccc(-c2ccc(C(F)(F)F)cn2)cc1 ; condition: Kp uu strictly below 0.8. Does it hold?
True

Could you do the same for CC(C)n1ncc2c1C(=O)CC1(CCN(C(=O)c3ccc4[nH]nc(C(N)=O)c4c3)CC1)C2 , please?
False

Could you do the same for COc1ccc(-c2cc3c(S(=O)(=O)O)c[nH]c3cc2Cl)cc1 , please?
False

----------
Assay: Fraction unbound in Wistar Han rat plasma at 2 uM incubated for 6 hrs by equilibrium dialysis method
Sorting guide: entries reporting fraction unbound at 6 h, 2 µM beneath 0.01 go in the Criterion met pile, the rest go in the Criterion not met pile.

Past entries and their recorded results:
>  <compound>
CS(=O)(=O)c1cccc(C(=O)O)c1

>  <assignedCategory>
Criterion not met

$$$$
>  <compound>
O=C(NC1CC1)c1nc2cccnn2c1-c1ccc2ncnn2c1

>  <assignedCategory>
Criterion not met

$$$$
>  <compound>
Cn1ncc(-c2ccc(C(=O)N(c3ncccc3Cl)[C@@H]3CCCNC3)cc2)c1C(=O)O

>  <assignedCategory>
Criterion not met

$$$$
>  <compound>
COc1cc2c(cc1Cc1ccccc1)C[C@H](N)C(=O)N2OC(=O)N(C)C

>  <assignedCategory>
Criterion not met

$$$$
>  <compound>
COc1ccc(-c2cc3c(S(=O)(=O)O)c[nH]c3cc2Cl)cc1

>  <assignedCategory>
Criterion met

$$$$
>  <compound>
CC(C)(CC1Cc2ccccc2C1)NC[C@@H](O)COc1cc(C2CC3CC2C2C(C(=O)O)C32)ccc1C#N (stereo partly drawn)

>  <assignedCategory>
Criterion not met

$$$$
>  <compound>
Cn1nc(C(=O)NCCN2CCOCC2)cc1-c1cc2ccccc2[nH]1

>  <assignedCategory>
Criterion not met

$$$$
>  <compound>
C[C@H]1C[C@H]2CSC(N)=N[C@@]2(c2cc(C#N)ccc2F)CO1

>  <assignedCategory>
Criterion not met

$$$$
>  <compound>
COc1ccc(-c2cc3c(C(=O)O)n[nH]c3cc2Cl)cc1

>  <assignedCategory>
Criterion met

$$$$
>  <compound>
Cn1cnc(-c2ccc(O[C@H]3CCN(C(=O)Cc4ccc(OC(F)(F)F)cc4)C[C@@H]3F)c(C(N)=O)c2)c1

>  <assignedCategory>
Criterion not met

$$$$

Input COc1cc(/C=C2\CCCN([C@@H](C)c3ccc(F)cc3)C2=O)ccc1-n1cnc(C)c1 ; condition: fraction unbound at 6 h, 2 µM strictly below 0.01. Does it hold?
Criterion met

Could you do the same for CC(=O)NS(=O)(=O)c1ccc(Oc2ccc(F)c(Cl)c2)c(C(F)(F)F)c1 , please?
Criterion met

Could you do the same for C[C@H](CN1CCOCC1)n1/c(=N\C(N)=O)[nH]c2cc(/C=C3\c4ccccc4COc4cc(F)ccc43)ccc21 , please?
Criterion met

Could you do the same for O=C(O)c1c[nH]c2cc(Cl)c(-c3ccc(CC(=O)N4CCOCC4)cc3)cc12 , please?
Criterion met

Could you do the same for Cc1ccc(NC(=O)N2CCN(Cc3sc4ccccc4c3C)CC2)nc1 , please?
Criterion met

----------
Assay: Apparent permeability of the compound across dog RRCK cells by MDCK-LE assay
Sorting guide: entries reporting Papp beneath 8 ×10⁻⁶ cm/s go in the True pile, the rest go in the False pile.

Past entries and their recorded results:
>  <compound>
CC(C)c1nc(CN(C)C(=O)N[C@H](C(=O)N[C@@H](Cc2ccccc2)C[C@H](O)[C@H](Cc2ccccc2)NC(=O)OCc2cncs2)C(C)C)cs1 [RITONAVIR]

>  <assignedCategory>
False

$$$$
>  <compound>
COc1cc(/C=C2\CCCN([C@@H](C)c3ccc(F)cc3)C2=O)ccc1-n1cnc(C)c1

>  <assignedCategory>
False

$$$$
>  <compound>
O=C(O)c1nc2cc(Cl)c(Cl)cc2nc1O

>  <assignedCategory>
True

$$$$
>  <compound>
CS(=O)(=O)c1cccc(C(=O)O)c1

>  <assignedCategory>
False

$$$$
>  <compound>
NC(=O)c1c(-c2ccc(Oc3ccc(Cl)cc3)cc2)nn([C@@H]2CCCN(C(=O)/C=C/CO)C2)c1N

>  <assignedCategory>
True

$$$$

Next:
Input CN1CC[C@H](c2c(O)cc(O)c3c(=O)cc(-c4ccccc4Cl)oc23)[C@H](O)C1 [ALVOCIDIB] ; condition: Papp strictly below 8 ×10⁻⁶ cm/s. Does it hold?
False

----------
Experiment: Drug concentration in total heart in Wistar Han rat at 1 to 2 mg/kg, iv infused for 10 to 20 hrs by LC-MS/MS analysis
Details: in vivo
Ct below 100 ng/mL gives -1; Ct at or above it gives 1.

Past entries and their recorded results:
>  <compound>
O=C(NC1CC1)c1nc2cccnn2c1-c1ccc2ncnn2c1

>  <assignedCategory>
1

$$$$
>  <compound>
COc1cc(/C=C2\CCCN([C@@H](C)c3ccc(F)cc3)C2=O)ccc1-n1cnc(C)c1

>  <assignedCategory>
1

$$$$
>  <compound>
CC1(C)CN(CCC#N)C(=O)[C@@H]1Oc1ccc(C#N)c(C(F)(F)F)c1

>  <assignedCategory>
1

$$$$
>  <compound>
CC1(OC(=O)N2CCC(n3ncc(COc4ccc(C(N)=O)cc4F)c3C#N)CC2)CC1

>  <assignedCategory>
1

$$$$
>  <compound>
C[C@H]1c2cccc(CCC(C)(C)O)c2C[C@H](CO)N1C(=O)Cc1c(Cl)cccc1Cl

>  <assignedCategory>
1

$$$$

Record CN1CC[C@H](c2c(O)cc(O)c3c(=O)cc(-c4ccccc4Cl)oc23)[C@H](O)C1 ; criterion: Ct no lower than 100 ng/mL. Met?
-1

----------
Assay: Drug concentration in total heart in Wistar Han rat at 1 to 2 mg/kg, iv infused for 10 to 20 hrs by LC-MS/MS analysis
Details: in vivo
Kindly supply the reported Ct values for the records listed here.
Record the result as number plus unit.

Batch lookup, Ct per entry.
1. O=C(c1cccc(N2CCNCC2)n1)N1CCC(c2ccccc2F)CC1
2. C[C@H]1C[C@H]2CSC(N)=N[C@@]2(c2cc(C#N)ccc2F)CO1

410 ng/mL
380 ng/mL

Batch lookup, Ct per entry.
1. Nc1noc2ccc(-c3cc(Cl)ccc3Oc3cc(F)c(S(=O)(=O)Nc4cscn4)cc3F)cc12
2. O=C(O)[C@@H]1CCCN(C(=O)n2cnc(-c3ccc(-c4cnc(N5CCOCC5)nc4)cc3)n2)[C@H]1c1ccccc1
3. O=C(O)C(=O)Nc1ccc(NC(=O)[C@H](CC2CCCC2)n2cnc(C(F)(F)F)c2)nc1
4. COc1ccc(Cc2cc([C@@H]3OC4(COC4)[C@@H](O)[C@H](O)[C@H]3O)ccc2C)cc1
5. Cc1ccc(CC(C)(C)NC[C@@H](O)CO[C@H](C)c2ccccc2-c2ccc(C(=O)O)c(C)c2)cc1F
6. Cc1ccc(NC(=O)N2CCN(Cc3sc4ccccc4c3C)CC2)nc1
7. C[C@H](c1nc2cnc(N3CCC[C@@H](C(=O)N4CCCC4)C3)nc2[nH]1)n1cc(Cl)cn1

54 ng/mL
59 ng/mL
20 ng/mL
260 ng/mL
56 ng/mL
130 ng/mL
120 ng/mL
